meta.source: paper PMC5700166

ASSAY TARGET: GST-Ap-NF-kB RHD (Exaiptasia pallida (Aiptasia), UniProt A0A913YAJ5 2-422)
Sequence: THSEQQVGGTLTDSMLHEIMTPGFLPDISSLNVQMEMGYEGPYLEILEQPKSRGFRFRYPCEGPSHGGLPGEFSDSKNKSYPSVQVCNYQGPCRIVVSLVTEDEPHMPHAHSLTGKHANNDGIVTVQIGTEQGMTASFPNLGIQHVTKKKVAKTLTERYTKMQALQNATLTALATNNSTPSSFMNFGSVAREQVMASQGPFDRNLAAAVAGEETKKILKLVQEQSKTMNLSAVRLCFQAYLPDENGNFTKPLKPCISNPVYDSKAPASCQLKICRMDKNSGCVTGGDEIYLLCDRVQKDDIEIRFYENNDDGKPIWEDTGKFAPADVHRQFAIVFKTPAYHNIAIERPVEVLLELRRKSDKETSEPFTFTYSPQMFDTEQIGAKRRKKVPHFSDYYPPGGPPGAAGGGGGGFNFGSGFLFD
METHOD SUMMARY: protein-binding microarray (PBM); PBM: ~300 nM protein, 6 mM HEPES pH 7.8, 80 mM KCl, 0.5 mM EDTA, 0.5 mM EGTA, 6% glycerol, 35 ng/ul poly-dIdC, 1% milk, 1 h, room temperature; high values mean tight binding
EXPERIMENTAL CONDITIONS: dsDNA, one strand shown
Field 'label' (enum: Satisfied / Not satisfied). Set to Satisfied when binding signal is strictly under 5 z-score; else Not satisfied.

Here's what some known entries look like.
CCGATTAACATCACTCCCTAAAATGATGTTAATCGGGTCTTGATTCGCTTGACGCTGCTG: Satisfied
CCGATTAACATCAAGGGGGAGATTGATGTTAATCGGGTCTTGATTCGCTTGACGCTGCTG: Not satisfied
CCGATTAACATCACTTTCCCAAATGATGTTAATCGGGTCTTGATTCGCTTGACGCTGCTG: Satisfied

Check if binding signal falls below 5 z-score for CCGATTAACATCAAATTCCCAGCTGATGTTAATCGGGTCTTGATTCGCTTGACGCTGCTG .
Satisfied

* * *

ASSAY TARGET: GST-Aq-NF-kB (Amphimedon queenslandica, UniProt A9Y5G7 2-389)
Sequence: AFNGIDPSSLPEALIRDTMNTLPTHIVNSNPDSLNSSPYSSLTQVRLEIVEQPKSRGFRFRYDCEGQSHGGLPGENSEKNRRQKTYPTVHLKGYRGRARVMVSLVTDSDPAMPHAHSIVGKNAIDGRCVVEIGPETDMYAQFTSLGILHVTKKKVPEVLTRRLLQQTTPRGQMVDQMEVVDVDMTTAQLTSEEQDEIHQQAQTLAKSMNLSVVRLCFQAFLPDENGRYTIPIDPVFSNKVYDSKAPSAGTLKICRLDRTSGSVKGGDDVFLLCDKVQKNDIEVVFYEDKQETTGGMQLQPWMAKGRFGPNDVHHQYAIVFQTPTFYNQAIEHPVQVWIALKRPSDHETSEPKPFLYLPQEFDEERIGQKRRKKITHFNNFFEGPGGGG
METHOD SUMMARY: protein-binding microarray (PBM); PBM: ~300 nM protein, 6 mM HEPES pH 7.8, 80 mM KCl, 0.5 mM EDTA, 0.5 mM EGTA, 6% glycerol, 35 ng/ul poly-dIdC, 1% milk, 1 h, room temperature; high values mean tight binding
EXPERIMENTAL CONDITIONS: dsDNA, one strand shown
Field 'label' (enum: 1.0 / 0.0). Set to 1.0 when binding signal is strictly under 4 z-score; else 0.0.

Here's what some known entries look like.
CCGATTAACATCACATCCCCCCCTGATGTTAATCGGGTCTTGATTCGCTTGACGCTGCTG: 0.0
CCGATTAACATCAGAAAATTCCCTGATGTTAATCGGGTCTTGATTCGCTTGACGCTGCTG: 0.0
CCGATTAACATCAATAAATTCCCTGATGTTAATCGGGTCTTGATTCGCTTGACGCTGCTG: 0.0

Check if binding signal falls below 4 z-score for CCGATTAACATCAAGGGATTTCCTGATGTTAATCGGGTCTTGATTCGCTTGACGCTGCTG .
0.0

Check if binding signal falls below 4 z-score for CCGATTAACATCAAGTACTTCCCTGATGTTAATCGGGTCTTGATTCGCTTGACGCTGCTG .
1.0

Check if binding signal falls below 4 z-score for CCGATTAACATCAAAAGTACCCCTGATGTTAATCGGGTCTTGATTCGCTTGACGCTGCTG .
0.0

Check if binding signal falls below 4 z-score for CCGATTAACATCACCCATGGGAATGATGTTAATCGGGTCTTGATTCGCTTGACGCTGCTG .
1.0

Check if binding signal falls below 4 z-score for CCGATTAACATCAGCCCCCCCCCTGATGTTAATCGGGTCTTGATTCGCTTGACGCTGCTG .
0.0

Check if binding signal falls below 4 z-score for CCGATTAACATCACGGAAATACCTGATGTTAATCGGGTCTTGATTCGCTTGACGCTGCTG .
0.0

Check if binding signal falls below 4 z-score for CCGATTAACATCACCAAACCCCCTGATGTTAATCGGGTCTTGATTCGCTTGACGCTGCTG .
0.0

Check if binding signal falls below 4 z-score for CCGATTAACATCAGGGACGCCCCTGATGTTAATCGGGTCTTGATTCGCTTGACGCTGCTG .
0.0

Check if binding signal falls below 4 z-score for CCGATTAACATCAGGGACATACCTGATGTTAATCGGGTCTTGATTCGCTTGACGCTGCTG .
0.0

Check if binding signal falls below 4 z-score for CCGATTAACATCAGGAAGTTCCATGATGTTAATCGGGTCTTGATTCGCTTGACGCTGCTG .
1.0

Check if binding signal falls below 4 z-score for CCGATTAACATCAGATCTTCCCCTGATGTTAATCGGGTCTTGATTCGCTTGACGCTGCTG .
0.0

Check if binding signal falls below 4 z-score for CCGATTAACATCATGAATTCCCATGATGTTAATCGGGTCTTGATTCGCTTGACGCTGCTG .
1.0

Check if binding signal falls below 4 z-score for CCGATTAACATCAAGATTCCCCTTGATGTTAATCGGGTCTTGATTCGCTTGACGCTGCTG .
0.0

Check if binding signal falls below 4 z-score for CCGATTAACATCAGCACCCCCCCTGATGTTAATCGGGTCTTGATTCGCTTGACGCTGCTG .
0.0

Check if binding signal falls below 4 z-score for CCGATTAACATCAGGATATACCCTGATGTTAATCGGGTCTTGATTCGCTTGACGCTGCTG .
0.0

* * *

ASSAY TARGET: GST-Ap-NF-kB RHD (Exaiptasia pallida (Aiptasia), UniProt A0A913YAJ5 2-422)
Sequence: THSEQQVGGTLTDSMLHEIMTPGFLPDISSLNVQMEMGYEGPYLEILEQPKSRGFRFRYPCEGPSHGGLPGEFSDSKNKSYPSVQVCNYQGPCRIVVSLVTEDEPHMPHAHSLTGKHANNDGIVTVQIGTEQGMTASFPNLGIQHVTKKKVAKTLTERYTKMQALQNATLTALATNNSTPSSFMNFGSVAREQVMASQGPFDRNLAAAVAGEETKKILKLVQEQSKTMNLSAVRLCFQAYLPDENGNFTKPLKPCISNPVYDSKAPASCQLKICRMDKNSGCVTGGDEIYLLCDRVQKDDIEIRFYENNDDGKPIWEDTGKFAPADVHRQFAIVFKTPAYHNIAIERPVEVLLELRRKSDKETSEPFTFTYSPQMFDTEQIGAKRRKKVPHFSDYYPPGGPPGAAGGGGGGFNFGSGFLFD
METHOD SUMMARY: protein-binding microarray (PBM); PBM: ~300 nM protein, 6 mM HEPES pH 7.8, 80 mM KCl, 0.5 mM EDTA, 0.5 mM EGTA, 6% glycerol, 35 ng/ul poly-dIdC, 1% milk, 1 h, room temperature; Ap Aiptasia and Nv Nematostella (sea anemones) / Co Capsaspora / Aq Amphimedon (sponge) / Dm Drosophila / Hu human; RHD is the Rel homology domain; high values mean tight binding
EXPERIMENTAL CONDITIONS: dsDNA, one strand shown
Entries and their binding signal values follow.
Numeric only. Scale: z-score

Examples with their reported binding signal follow.
CCGATTAACATCAGGGAATCCCCTGATGTTAATCGGGTCTTGATTCGCTTGACGCTGCTG: 14.7
CCGATTAACATCAGGGAACTCCATGATGTTAATCGGGTCTTGATTCGCTTGACGCTGCTG: 2.66
CCGATTAACATCAAACGCCCCCCTGATGTTAATCGGGTCTTGATTCGCTTGACGCTGCTG: 4.79
CCGATTAACATCAAGAGATCCCCTGATGTTAATCGGGTCTTGATTCGCTTGACGCTGCTG: 6.49
CCGATTAACATCAGGAAAACCCCTGATGTTAATCGGGTCTTGATTCGCTTGACGCTGCTG: 8.2

// next item, binding signal requested
Hi! What's the reported binding signal for CCGATTAACATCAGGGAACTACCTGATGTTAATCGGGTCTTGATTCGCTTGACGCTGCTG on GST-Ap-NF-kB RHD (Exaiptasia pallida (Aiptasia), UniProt A0A913YAJ5 2-422)?
4.91
